The reported numbers originate from paper PMC6018403.

# test_summary: Multi-component pharmacokinetic study of GQD, GQD-GC and single herb extracts in rats (plasma, LC/MS/MS)
# Type: in vivo, Sprague-Dawley rats
# reported_conditions: male, Sprague-Dawley, rat, in vivo, po, 9.45 g/kg; Ge-Gen group: rats, oral 9.45 g/kg, plasma; read-out: AUClast
readout_label: AUC(0-t) (ng·h/mL)
Kindly answer with a numeric value in ng·h/mL, unit omitted.

Query string: Find the recorded AUC(0-t) belonging to "O=c1c(-c2ccc(O)cc2)coc2cc(O[C@@H]3O[C@H](CO)[C@@H](O)[C@H](O)[C@H]3O)ccc12" and report it.
Result string: 290

* * *

The molecules listed here are annotated with their Tmax.
# test_summary: Multi-component pharmacokinetic study of GQD, GQD-GC and single herb extracts in rats (plasma, LC/MS/MS)
# Format: in vivo, Sprague-Dawley rats
# reported_conditions: male, Sprague-Dawley, rat, in vivo; GG (Ge-Gen) group: rats, oral extract 9.45 g/kg, plasma; read-out: Tmax
Number first, unit second: that is the form wanted.

Solved entries:
>>> value_observed("COc1cc(-c2coc3c(C4OC(COC5OCC(O)(CO)C5O)C(O)C(O)C4O)c(O)ccc3c2=O)ccc1O (stereo not drawn) [Compound 37, 3'-methoxymirificin]")
"21.6 min"
>>> value_observed("O=c1c(-c2ccc(O)cc2)coc2cc(O[C@@H]3O[C@H](CO)[C@@H](O)[C@H](O)[C@H]3O)ccc12 [Compound 1, Daidzin]")
"22.8 min"

Query string: Find the recorded Tmax belonging to O=c1c(-c2ccc(O)cc2)coc2cc(O)ccc12 [Compound 3, daidzein] and report it.
Result string: 480 min
